Target: VAChT (Tetronarce californica, UniProt P81721)
Construct: using highly purified Torpedo synaptic vesicles; from tissue
Test: biochemical
Format: binding
Conditions: selectivity index Ki (σ2)/Ki (VAChT)
Where a name gives a salt, the structure may show the parent alone.
# Lookup of reported σ2/VAChT keyed by entry

Some solved cases for reference:
INSERT INTO assay_data (compound, observation_type, observed_value) VALUES
  ('O=C(c1ncccc1OCCF)C1CCN(C2Cc3ccccc3CC2O)CC1 (stereo not shown) [TZ-4-2-12, oxalate]', 'σ2/VAChT', 4.0),
  ('Cn1ccc(C(=O)C2CCN(C3Cc4ccccc4CC3O)CC2)cc1=O (stereo not shown) [TZ-4-1-150, oxalate]', 'σ2/VAChT', 32.1),
  ('O=C(c1cncc(F)c1)C1CCN(C2Cc3ccccc3CC2O)CC1 (stereo not shown) [TZ-4-1-96, oxalate]', 'σ2/VAChT', 167.3);

Can you look up the measured σ2/VAChT of COc1ccc(C(=O)C2CCN(C3Cc4c(N)cccc4CC3O)CC2)cn1 (stereo not shown) [OS-5-82, oxalate] for me?
225.3

###

# Lookup of reported Ki keyed by entry
Biological target: human vesicular acetylcholine transporter (VAChT) (Homo sapiens)
Construct: expressed in transfected cells; host or cells: PC12 A123.7 cells (crude extract / homogenized, partially clarified cells)
Sequence (Q16572 1-532): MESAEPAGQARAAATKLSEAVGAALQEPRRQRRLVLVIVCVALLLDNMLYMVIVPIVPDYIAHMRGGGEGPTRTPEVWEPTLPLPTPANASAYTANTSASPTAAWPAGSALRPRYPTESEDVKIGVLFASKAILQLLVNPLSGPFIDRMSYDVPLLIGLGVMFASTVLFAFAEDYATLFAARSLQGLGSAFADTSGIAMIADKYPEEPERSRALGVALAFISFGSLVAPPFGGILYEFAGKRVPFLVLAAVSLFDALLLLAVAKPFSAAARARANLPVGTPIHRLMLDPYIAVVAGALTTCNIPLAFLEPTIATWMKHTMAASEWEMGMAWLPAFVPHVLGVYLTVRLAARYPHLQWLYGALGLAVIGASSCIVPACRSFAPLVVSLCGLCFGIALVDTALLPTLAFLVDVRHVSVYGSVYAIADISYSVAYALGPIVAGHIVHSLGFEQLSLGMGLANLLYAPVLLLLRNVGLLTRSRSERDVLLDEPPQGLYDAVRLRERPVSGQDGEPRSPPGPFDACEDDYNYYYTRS
Test: VAChT binding assay, (−)-[3H]vesamicol, human VAChT expressed in PC12 cells
Conditions: expressed human VAChT; mean ± SEM; read-out: VAChT (Ki)
Entry rule: numbers only, all in nM.

INSERT INTO assay_data (compound, observed_value) VALUES
  ('O=C(c1ccc(F)cc1)C1CCN(C2CCN(C(=O)c3ccc(F)cc3)CC2O)CC1 (centres unmarked) [Compound 15a]', 3600);

Can you look up the measured Ki of COc1ccc(C(=O)C2CCN(C3CN(Cc4ccccc4)CCC3O)CC2)cc1 (centres unmarked) [Compound 16g] for me?
35.5

###

Biological target: VAChT (Tetronarce californica, UniProt P81721)
Construct: using highly purified Torpedo synaptic vesicles; from tissue
Test: biochemical
Type: binding
Details: in words
Structures can show the parent of a compound that is named as a salt.
Observation type: VAChT/σ selectivity

Some solved cases for reference:
INSERT INTO results (compound, system_tested, observation_type, observed_value) VALUES
  ('Cn1ccc(C(=O)C2CCN(C3Cc4ccccc4CC3O)CC2)cc1=O (centres unmarked) [TZ-4-1-150, oxalate]', 'VAChT (Tetronarce californica, UniProt P81721)', 'VAChT/σ selectivity', 'moderate or high'),
  ('O=C(c1cncc(F)c1)C1CCN(C2Cc3ccccc3CC2O)CC1 (centres unmarked) [TZ-4-1-96, oxalate]', 'VAChT (Tetronarce californica, UniProt P81721)', 'VAChT/σ selectivity', 'moderate or high'),
  ('COc1cccnc1C(=O)C1CCN(C2Cc3ccccc3CC2O)CC1 (centres unmarked) [TZ-4-1-92, oxalate]', 'VAChT (Tetronarce californica, UniProt P81721)', 'VAChT/σ selectivity', 'poor selectivity'),
  ('Nc1cccc2c1CC(N1CCC(C(=O)c3cccnc3)CC1)C(O)C2 (centres unmarked) [OS-5-110, oxalate]', 'VAChT (Tetronarce californica, UniProt P81721)', 'VAChT/σ selectivity', 'moderate or high'),
  ('COc1ccc(C(=O)C2CCN(C3Cc4c(N)cccc4CC3O)CC2)cn1 (centres unmarked) [OS-5-82, oxalate]', 'VAChT (Tetronarce californica, UniProt P81721)', 'VAChT/σ selectivity', 'moderate or high'),
  ('Cn1cccc1C(=O)C1CCN(C2Cc3ccccc3CC2O)CC1 (centres unmarked) [OS-5-60, oxalate]', 'VAChT (Tetronarce californica, UniProt P81721)', 'VAChT/σ selectivity', 'moderate or high'),
  ('O=C(c1ncccc1OCCF)C1CCN(C2Cc3ccccc3CC2O)CC1 (centres unmarked) [TZ-4-2-12, oxalate]', 'VAChT (Tetronarce californica, UniProt P81721)', 'VAChT/σ selectivity', 'poor selectivity');

Can you look up the measured VAChT/σ selectivity of O=C(c1ccc(OCCF)nc1)C1CCN([C@H]2Cc3ccccc3C[C@@H]2O)CC1 [TZ-5-3] for me?
moderate or high

###

# Lookup of reported Ki keyed by entry
Biological target: UniProt P81721
Sequence (P81721 1-515): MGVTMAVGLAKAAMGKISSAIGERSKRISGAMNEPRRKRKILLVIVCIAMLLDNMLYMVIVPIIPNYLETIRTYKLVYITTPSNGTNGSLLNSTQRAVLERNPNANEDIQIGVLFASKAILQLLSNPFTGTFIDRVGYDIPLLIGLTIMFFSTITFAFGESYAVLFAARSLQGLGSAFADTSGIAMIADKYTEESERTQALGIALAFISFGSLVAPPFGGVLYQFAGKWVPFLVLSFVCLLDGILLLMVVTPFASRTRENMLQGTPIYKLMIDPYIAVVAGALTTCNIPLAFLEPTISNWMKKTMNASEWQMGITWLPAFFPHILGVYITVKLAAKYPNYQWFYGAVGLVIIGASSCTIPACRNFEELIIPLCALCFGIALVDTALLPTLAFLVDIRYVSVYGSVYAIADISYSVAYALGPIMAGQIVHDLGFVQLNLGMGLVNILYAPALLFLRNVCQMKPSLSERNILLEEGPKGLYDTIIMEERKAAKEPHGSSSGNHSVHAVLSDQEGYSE
Counter-ions that a name gives are not always drawn.
Entry rule: numbers only, all in nM.

Some solved cases for reference:
INSERT INTO measurements (molecule, system_tested, observation_type, observed_value) VALUES
  ('O=C(c1ncccc1OCCF)C1CCN(C2Cc3ccccc3CC2O)CC1 (stereo not drawn) [TZ-4-2-12, oxalate]', 'UniProt P81721', 'Ki', 76.4),
  ('Cn1ccc(C(=O)C2CCN(C3Cc4ccccc4CC3O)CC2)cc1=O (stereo not drawn) [TZ-4-1-150, oxalate]', 'UniProt P81721', 'Ki', 66.2);

Here is another molecule to look at.
State its Ki on UniProt P81721: O=C(c1ccc(F)nc1)C1CCN(C2Cc3ccccc3CC2O)CC1 (stereo not drawn) [TZ-4-1-154, oxalate]
26.1

###

Target: VAChT (Tetronarce californica);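 note: VAChT binding measured with highly purified Torpedo synaptic vesicles, σ1 affinity in rat brain and σ2 affinity in guinea pig membranes, values given as equilibrium Ki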
Construct: using highly purified Torpedo synaptic vesicles; from tissue
Experiment: biochemical
Type: binding
Details: selectivity index Ki (σ2)/Ki (VAChT)
Where a name gives a salt, the structure may show the parent alone.
Observation type: σ2/VAChT
Reply with the value as a number alone.

State its σ2/VAChT on VAChT (Tetronarce californica): CNc1ccc(C(=O)C2CCN(C3Cc4ccccc4CC3O)CC2)cc1 (centres unmarked)
2040

State its σ2/VAChT on VAChT (Tetronarce californica): O=C(c1ccc(F)nc1)C1CCN(C2Cc3ccccc3CC2O)CC1 (centres unmarked) [TZ-4-1-154, oxalate]
67.0

State its σ2/VAChT on VAChT (Tetronarce californica): COc1cccnc1C(=O)C1CCN(C2Cc3ccccc3CC2O)CC1 (centres unmarked) [TZ-4-1-92, oxalate]
12.9

State its σ2/VAChT on VAChT (Tetronarce californica): Nc1cccc2c1CC(N1CCC(C(=O)c3cccnc3)CC1)C(O)C2 (centres unmarked) [OS-5-110, oxalate]
43.0

State its σ2/VAChT on VAChT (Tetronarce californica): O=C(c1ccc(OCCF)nc1)C1CCN([C@H]2Cc3ccccc3C[C@@H]2O)CC1
48.9

###

# Lookup of reported Ki keyed by entry
Target: σ2 receptor (Rattus norvegicus, UniProt Q5U3Y7)
Sequence (Q5U3Y7 whole entry): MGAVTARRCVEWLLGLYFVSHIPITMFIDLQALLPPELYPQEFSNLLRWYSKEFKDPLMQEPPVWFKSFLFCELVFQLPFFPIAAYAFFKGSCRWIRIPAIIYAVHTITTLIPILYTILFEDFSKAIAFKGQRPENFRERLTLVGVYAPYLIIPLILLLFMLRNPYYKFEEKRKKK
Assay: σ2 receptor binding assay, [3H]DTG, rat liver membrane homogenates
Design: conducted using rat liver membrane homogenates; from tissue; host or cells: rat liver membrane homogenates
Settings: Table 4, Ki values of VAChT specific compounds; tissue not given; read-out: Sigma-2 σ1
State the result as a value with its unit after it.

INSERT INTO results (molecule, observation_type, observed_value) VALUES
  ('COc1ccc(C(=O)C2CCN(C3CN(C(=O)c4cccnc4)CCC3O)CC2)cc1 (centres unmarked)', 'Ki', '24.3 µM'),
  ('O=C(c1ccc(F)cc1)C1CCN(C2CN(Cc3cccnc3)CCC2O)CC1 (centres unmarked)', 'Ki', '13 µM'),
  ('Cc1ccc(C(=O)N2CCC(O)C(N3CCC(C(=O)c4ccc(F)cc4)CC3)C2)s1 (centres unmarked)', 'Ki', '16.4 µM'),
  ('COc1ccc(C(=O)C2CCN(C3CN(C(=O)c4ccc(F)cc4)CCC3O)CC2)cc1 (centres unmarked)', 'Ki', '2.6 µM');

Can you look up the measured Ki of O=C(c1ccc(F)cc1)C1CCN(C2CN(C(=O)c3cccnc3)CCC2O)CC1 (centres unmarked) for me?
15.5 µM
